- EXPERIMENTAL_TARGET: UniProt:Q12809
- Sequence (Q12809 whole entry): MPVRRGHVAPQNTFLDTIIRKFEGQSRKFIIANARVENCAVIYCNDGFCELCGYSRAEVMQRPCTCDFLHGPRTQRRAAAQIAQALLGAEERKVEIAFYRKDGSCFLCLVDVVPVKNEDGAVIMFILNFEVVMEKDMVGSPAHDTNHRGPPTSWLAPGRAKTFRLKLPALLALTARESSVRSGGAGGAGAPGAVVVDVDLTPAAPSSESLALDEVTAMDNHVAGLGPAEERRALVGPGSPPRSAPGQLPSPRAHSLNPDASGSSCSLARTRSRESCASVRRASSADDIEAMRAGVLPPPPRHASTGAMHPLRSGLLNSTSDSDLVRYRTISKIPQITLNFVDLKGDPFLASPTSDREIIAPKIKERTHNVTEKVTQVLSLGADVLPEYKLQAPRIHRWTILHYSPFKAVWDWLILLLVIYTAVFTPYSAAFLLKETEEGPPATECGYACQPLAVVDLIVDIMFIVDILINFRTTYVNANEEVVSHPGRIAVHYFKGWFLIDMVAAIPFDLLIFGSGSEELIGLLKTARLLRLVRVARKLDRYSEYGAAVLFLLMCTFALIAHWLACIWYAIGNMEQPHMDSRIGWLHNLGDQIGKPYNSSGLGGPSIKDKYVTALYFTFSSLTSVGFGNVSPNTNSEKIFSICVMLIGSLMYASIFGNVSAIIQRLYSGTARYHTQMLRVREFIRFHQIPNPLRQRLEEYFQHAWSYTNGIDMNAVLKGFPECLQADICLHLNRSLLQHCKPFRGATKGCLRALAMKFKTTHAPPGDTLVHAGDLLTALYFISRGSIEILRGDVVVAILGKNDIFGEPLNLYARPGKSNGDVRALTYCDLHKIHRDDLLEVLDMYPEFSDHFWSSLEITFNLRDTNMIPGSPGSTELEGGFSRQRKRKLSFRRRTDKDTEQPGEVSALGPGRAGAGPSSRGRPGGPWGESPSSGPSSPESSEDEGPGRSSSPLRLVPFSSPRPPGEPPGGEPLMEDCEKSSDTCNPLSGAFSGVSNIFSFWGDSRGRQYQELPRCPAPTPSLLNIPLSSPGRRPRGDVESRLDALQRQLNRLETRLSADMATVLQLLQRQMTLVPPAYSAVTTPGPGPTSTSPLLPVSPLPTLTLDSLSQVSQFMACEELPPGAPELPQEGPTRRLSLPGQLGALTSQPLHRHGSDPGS
QUANTITY_NAME: IC50

Would you kindly share the measured IC50 for "Cl.O=P(O)(O)c1ccc2c(n1)CCNC2" ?
> 300 µM

###

- EXPERIMENT: AUC (0 to infinity) in Sprague-Dawley rat at 1 mg/kg, iv measured upto 24 hrs by LC-MS/MS analysis
- Format: ADME, organism-based
- DETAILS: in vivo
QUANTITY_NAME: AUC(0-inf) (ng·h/mL)
Report the value in ng·h/mL with no unit label.

Would you kindly share the measured AUC(0-inf) for "NC[C@H]1CC[C@H](C(=O)O)CC1" ?
2820

The measurements presented in this section are drawn from ChEMBL document CHEMBL6103656.
